// reported MIC against M. catarrhalis for each item listed
test system: Moraxella catarrhalis; test: MIC against Gram-negative bacteria: Moraxella catarrhalis; format: cell-based; conditions: Moraxella catarrhalis; 5×10^5 CFU/mL; 10 h cultivation at 37° C.
endpoint-label: MIC against M. catarrhalis (µg/mL)

# substance, output-unit, endpoint-value
records = [
    ("PRT1368 (EKRCPGDCSGHGFCDTGECYCEEGFTGLDCA; listed as Homo sapiens)", "µg/mL", 12.5),
    ("PRT1344 (DIDECSPLPCLNNGVCKDLVGEFICECPSGYTGQRCE; listed as Homo sapiens)", "µg/mL", 50),
    ("PRT1375 (SIRTCPSNCHGRGRCEEGRCLCDPGYTGPTC; listed as Homo sapiens)", "µg/mL", 25),
    ("PRT1436 (AERNCRNPELNPCSVNAQCIEERQGDVTCVCGVGWAGDGYICG; listed as Homo sapiens)", "µg/mL", 25),
    ("PRT1481 (PVNLCKPSPCMNEGSCVLQNGSYRCKCRDGWEGPHCE; listed as Homo sapiens)", "µg/mL", 50),
    ("PRT1407 (LKTMCPDQCSGHGTYLQESGSCTCDPNWTGPDCS; listed as Homo sapiens)", "µg/mL", 50),
    ("PRT1471 (GKNWCEEDMENGGCEYLCLPAPQINDHSPKYTCSCPSGYNVEENGRDCQ; listed as Homo sapiens)", "µg/mL", 25),
    ("PRT1417 (RACHPRCAEHGTCRDGKCECSPGWNGEHCT; listed as Homo sapiens)", "µg/mL", 12.5),
    ("PRT1364 (GELKCPNGCSGHGRCVNGQCVCDEGYTGEDCS; listed as Homo sapiens)", "µg/mL", 12.5),
    ("PRT1422 (DVDDCILEPSPCPQRCVNTQGGFECHCYPNYDLVDGECV; listed as Homo sapiens)", "µg/mL", 50),
    ("PRT1444 (HHIPCPEHYNGFCMHGKCEHSINMQEPSCRCDAGYTGQHCE; listed as Homo sapiens)", "µg/mL", 12.5),
    ("PRT1482 (LCSFGCGSGICIAPNVCSCQDGEQGATCP; listed as Homo sapiens)", "µg/mL", 25),
    ("PRT1437 (DVNECADGAHPPCHASARCRNTKGGFQCLCADPYELGDDGRTCV; listed as Homo sapiens)", "µg/mL", 12.5),
    ("PRT1400 (VCSVDCGTHGVCIGGACRCEEGWTGAACD; listed as Homo sapiens)", "µg/mL", 50),
    ("PRT1438 (PVKSCSEPRCFNGGTCQQALYFSDFVCQCPEGFAGKCCE; listed as Homo sapiens)", "µg/mL", 12.5),
    ("PRT1399 (ARVQCPDQCSGHGTYLPDTGLCSCDPNWMGPDCS; listed as Homo sapiens)", "µg/mL", 12.5),
    ("PRT1353 (SDMSCPNDCHQHGRCVNGMCVCDDGYTGEDCR; listed as Homo sapiens)", "µg/mL", 25),
    ("PRT1462 (CQCNLHGSVNKFCNPHSGQCECKKEAKGLQCDTCRENFYGLDVTNCKA; listed as Homo sapiens)", "µg/mL", 12.5),
    ("PRT1404 (RAACPVLCSGNGQYSKGRCLCFSGWKGTECD; listed as Homo sapiens)", "µg/mL", 25),
    ("PRT1377 (PASACPGGCGPRELCRAGQCVCVEGFRGPDC; listed as Homo sapiens)", "µg/mL", 50),
    ("PRT1373 (STRSCPGGCRGRGQCLDGRCVCEDGYSGEDC; listed as Homo sapiens)", "µg/mL", 12.5),
    ("PRT1476 (DVDECSLKPSICGTAVCKNIPGDFECECPEGYRYNLKSKSCE; listed as Homo sapiens)", "µg/mL", 25),
    ("PRT1477 (DIDECSENMCAQLCVNYPGGYTCYCDGKKGFKLAQDQKSCE; listed as Homo sapiens)", "µg/mL", 12.5),
    ("PRT1460 (CDCDTVGTRNGSILCDQIGGQCNCKRHVSGRQCNQCQNGFYNLQELDPDGCSP; listed as Homo sapiens)", "µg/mL", 50),
    ("PRT1352 (SEPECPGNCHLRGRCIDGQCICDDGFTGEDCS; listed as Homo sapiens)", "µg/mL", 12.5),
]
